Target: NMB receptor (Rattus norvegicus, UniProt P24053)
Sequence (P24053 1-390): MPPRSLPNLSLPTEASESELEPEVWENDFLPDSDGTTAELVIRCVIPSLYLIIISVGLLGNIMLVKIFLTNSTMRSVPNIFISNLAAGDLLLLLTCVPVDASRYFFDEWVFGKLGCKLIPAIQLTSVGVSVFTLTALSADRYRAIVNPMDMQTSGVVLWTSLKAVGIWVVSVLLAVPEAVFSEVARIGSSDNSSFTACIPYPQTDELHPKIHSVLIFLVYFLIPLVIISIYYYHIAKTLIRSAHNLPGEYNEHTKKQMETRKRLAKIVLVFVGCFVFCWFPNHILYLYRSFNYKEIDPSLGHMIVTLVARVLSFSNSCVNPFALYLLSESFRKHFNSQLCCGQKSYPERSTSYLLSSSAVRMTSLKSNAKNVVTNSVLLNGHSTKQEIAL
Assay: [3H]inositol phosphates in NMB-R transfected cells (alone or NMB-stimulated)
Assay type: cell-based
Set-up: a full length NMB-preferring bombesin receptor clone generated from rat esophagus; expressed in transfected cells
Conditions: NMB-R transfected cells; analog 10 μM plus NMB 3 nM; NMB without analog 186 ± 58
Description: As described previously [Wada, E., et al. Neuron 6:421 (1991)], BALB 3T3 cells expressing a stably transfected rat NMB receptor (NMB-R transfected cells) were obtained using calcium phosphate precipitation of a full length NMB-preferring bombesin receptor clone generated from rat esophagus and subcloned into a modified version of the pCD2 plasmid. Cells were passaged every 3-4 days at confluence, using 0.1% trypsin in 1 mM EDTA. […]
Where a SMILES comes first, the peptide text is derived from it. Bridges are numbered along the chain shown (N, C = ends). [ ]: non-standard residue; d: D form. 2Nal = N[C@@H](Cc1ccc2ccccc2c1)C(=O)O; d2Nal = N[C@H](Cc1ccc2ccccc2c1)C(=O)O

>  <compound>
CC(C)[C@@H]1NC(=O)[C@H](CCCCN)NC(=O)[C@@H](Cc2c[nH]c3ccccc23)NC(=O)[C@H](Cc2ccc(O)cc2)NC(=O)[C@@H](NC(=O)[C@H](N)Cc2ccc3ccccc3c2)CSSC[C@@H](C(=O)N[C@H](C(N)=O)[C@@H](C)O)NC1=O

>  <unit-spec>
dym × 10^3

>  <[3H]IP, analog Plus NMB (3 nM)>
179

$$$$
>  <compound>
CC(C)[C@@H]1NC(=O)[C@H](CCCCN)NC(=O)[C@@H](Cc2c[nH]c3ccccc23)NC(=O)[C@H](Cc2ccc(O)cc2)NC(=O)[C@H](NC(=O)[C@H](N)Cc2ccc3ccccc3c2)CSSC[C@@H](C(=O)N[C@@H](Cc2ccc3ccccc3c2)C(N)=O)NC1=O [Analog #10] (H-[d2Nal][dC]Y[dW]KVC[2Nal]-NH2; disulfide 2-7)

>  <unit-spec>
dym × 10^3

>  <[3H]IP, analog Plus NMB (3 nM)>
4

$$$$
